target-desc: IFI16HinAB (Homo sapiens, UniProt Q16666-2 159-729)
Sequence (Q16666 other isoform, or with tags, fused parts or gaps): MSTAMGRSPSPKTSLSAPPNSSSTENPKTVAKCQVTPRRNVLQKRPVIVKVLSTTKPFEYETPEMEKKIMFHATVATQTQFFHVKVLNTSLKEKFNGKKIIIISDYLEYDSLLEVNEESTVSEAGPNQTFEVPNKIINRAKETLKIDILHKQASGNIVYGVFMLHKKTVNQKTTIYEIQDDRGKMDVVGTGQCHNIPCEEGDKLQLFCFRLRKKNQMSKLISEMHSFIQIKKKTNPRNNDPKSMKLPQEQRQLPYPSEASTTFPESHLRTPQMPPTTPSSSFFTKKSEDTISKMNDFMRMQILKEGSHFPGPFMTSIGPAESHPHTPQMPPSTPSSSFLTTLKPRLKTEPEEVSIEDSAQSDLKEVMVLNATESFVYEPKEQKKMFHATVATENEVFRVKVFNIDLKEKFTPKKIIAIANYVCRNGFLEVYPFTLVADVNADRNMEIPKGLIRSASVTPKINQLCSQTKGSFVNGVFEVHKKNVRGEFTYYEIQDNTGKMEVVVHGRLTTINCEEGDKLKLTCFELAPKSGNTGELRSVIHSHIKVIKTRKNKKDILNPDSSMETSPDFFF
method-notes: competition fluorescence anisotropy; unlabelled competitor against 6 nM 24-bp FAM-dsDNA, 1000 nM protein; 160 mM KCl (60 mM KCl for IFI16HinAB); buffer, pH and temperature not given in the available text
experimental-parameters: protein: recombinant
Would you mind telling me the reported pIC50 of each entry?
One number for each entry, as −log10 of the molar value.

binder	assay-result
60-base ssRNA_U (ssRNA) RNA: UUUCUUUCUUUCUUUCUUUCUUUCUUUCUUUCUUUCUUUCUUUCUUUCUUUCUUUCUUUC	6.13

Return reported pIC50 values for all items listed beneath this line.
1. 60-base ssDNA_T (ssDNA) DNA: TTTCTTTCTTTCTTTCTTTCTTTCTTTCTTTCTTTCTTTCTTTCTTTCTTTCTTTCTTTC
2. 60-bp dsDNA (dsDNA) DNA 1: TAAGACACGATGCGATAAAATCTGTTTGTAAAATTTATTAAGGGTACAAATTGCCCTAGC DNA 2: GCTAGGGCAATTTGTACCCTTAATAAATTTTACAAACAGATTTTATCGCATCGTGTCTTA
3. 60-bp DNA:RNA hybrid (DNA:RNA) DNA: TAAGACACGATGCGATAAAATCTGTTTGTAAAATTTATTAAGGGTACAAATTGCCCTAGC RNA: GCUAGGGCAAUUUGUACCCUUAAUAAAUUUUACAAACAGAUUUUAUCGCAUCGUGUCUUA

## Result
1: 6.08; 2: 6.54; 3: 6.18

## Task What value of pIC50 has been reported for the following binder? 60-bp dsRNA (dsRNA) RNA 1: UAAGACACGAUGCGAUAAAAUCUGUUUGUAAAAUUUAUUAAGGGUACAAAUUGCCCUAGC RNA 2: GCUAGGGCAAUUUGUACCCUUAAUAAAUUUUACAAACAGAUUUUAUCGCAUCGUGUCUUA
## Result 5.95
